- Test system: SW480 colon cancer cells
- Procedure text: Cell viability assay (CellTiter-Blue)
- Format: cell-based
- Run parameters: Homo sapiens, 96 h, four days
pEC50: −log10 of the molar value.
Measured endpoint: pEC50

>>> result("CC(C)Nc1cncc(-c2cc3c(-c4cc5c(-c6ccc(F)cc6)ccnc5[nH]4)n[nH]c3cn2)c1 [Compound 40]")
6.75
>>> result("O=C(Nc1cncc(-c2cc3c(-c4cc5c(-c6cccc(F)c6)ccnc5[nH]4)n[nH]c3cn2)c1)C1CC1 [Compound 20]")
6.80
>>> result("Cc1ccncc1-c1cc2c(-c3cc4c(-c5ccncc5)ccnc4[nH]3)n[nH]c2cn1 [Compound 117]")
5.07
>>> result("Cc1ccncc1-c1cc2c(-c3cc4c(-c5ccc(F)cc5)ccnc4[nH]3)n[nH]c2cn1 [Compound 33]")
5.98
